assay-comment: self-splicing fitness, log relative to wild type (ln ratio); higher = more splicing; Tetrahymena group I intron in knt gene, E. coli kanamycin selection, DiMSum; sequences stand for … in CUCUCU…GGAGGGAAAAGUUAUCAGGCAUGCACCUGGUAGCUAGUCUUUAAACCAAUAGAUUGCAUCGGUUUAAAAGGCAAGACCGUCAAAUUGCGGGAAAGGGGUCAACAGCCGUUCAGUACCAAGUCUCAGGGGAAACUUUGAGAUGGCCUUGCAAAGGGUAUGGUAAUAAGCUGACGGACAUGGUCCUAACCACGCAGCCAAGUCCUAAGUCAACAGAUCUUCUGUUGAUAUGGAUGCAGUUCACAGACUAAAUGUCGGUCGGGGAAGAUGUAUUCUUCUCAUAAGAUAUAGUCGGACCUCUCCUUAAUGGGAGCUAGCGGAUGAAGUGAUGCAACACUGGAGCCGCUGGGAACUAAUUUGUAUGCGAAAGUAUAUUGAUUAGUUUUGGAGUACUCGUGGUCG;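 also: selection with 25 µg/mL kanamycin versus none on LB agar overnight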
run-conditions: 30 °C
The following sequences are listed with their measured self-splicing fitness (ln) values.
Answer with the value's number alone.

construct-sequence: UUACAGCAAUAUUACGUCAA
self-splicing fitness (ln): -1.14

Record summary for `GUGCAGCAAUAUUACGAAAA` : reported self-splicing fitness (ln) = -2.34

Record summary for `UCAAAGCAAUAUUACGUCAA` : reported self-splicing fitness (ln) = -2.84

Record summary for `CUUUAGCAAUAUUACGUAUG` : reported self-splicing fitness (ln) = -0.82

Record summary for `GACUAGCAAUAUUACGAGGG` : reported self-splicing fitness (ln) = -3.34

Record summary for `ACUAAGCAAUAUUACGUCGU` : reported self-splicing fitness (ln) = -3.51

Record summary for `AGGGAGCAAUAUUACGUAUC` : reported self-splicing fitness (ln) = -2.16

Record summary for `GCAAAGCAAUAUUACGGUGG` : reported self-splicing fitness (ln) = -2.27

Record summary for `AGACAGCAAUAUUACGGAGA` : reported self-splicing fitness (ln) = -3.65
